The reported measurements were obtained from patent US10995091B2.

Target: Human CXCR4 transfected HEK293 cells (Homo sapiens, UniProt P61073)
Sequence (P61073 whole entry): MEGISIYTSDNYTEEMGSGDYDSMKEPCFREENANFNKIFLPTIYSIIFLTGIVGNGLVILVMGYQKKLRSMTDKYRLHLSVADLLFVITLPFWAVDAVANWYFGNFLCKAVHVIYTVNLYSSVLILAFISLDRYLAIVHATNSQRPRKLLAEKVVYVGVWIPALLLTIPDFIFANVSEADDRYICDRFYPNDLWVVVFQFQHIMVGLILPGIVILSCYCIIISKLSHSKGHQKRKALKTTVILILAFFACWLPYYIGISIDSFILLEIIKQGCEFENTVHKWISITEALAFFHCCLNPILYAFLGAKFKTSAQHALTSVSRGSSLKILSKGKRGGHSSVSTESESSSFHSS
Experiment: CXCR4 functional calcium assay (calcium flux FLIPR, antagonism of SDF1 response)
Conditions: CXCR4 functional activity, antagonism of SDF1 (EC50 concentration), read-out: CXCR4 fKi
Description: The functional activity of test compounds was routinely tested by measuring the ability of compounds to antagonize CXCR4 activity in a dose dependent manner, using a calcium flux Fluorescent Imaging Plate Reader FLIPR assay. […] A combined agonist/antagonist protocol was used to measure changes in intracellular calcium concentration. Compound (antagonist) was added to the cell plate using a Fluorometric Imaging Plate Reader (FLIPR) (Molecular Devices, Sunnyvale, Calif., USA). […]
metric-name: Ki

Solved cases (5 shown):
CCNC(=O)c1cccc(N2CCCN(C3CCN(C(C)C)CC3)CC2)n1 = 100 to 500 nM
c1cc(-c2ncc(C3CC3)[nH]2)nc(N2CCCN(C3CCC(N4CCCC4)CC3)CC2)c1 (centres unmarked) = 100 to 500 nM
[2H]C1([2H])CCN(C2CCN(C(C)C)CC2)CCN1c1cccc(C(=O)Nc2ccncc2)n1 = < 20 nM
CC(C)N1CCC(N2CCCN(c3cccc(C(=O)Nc4ccncc4)n3)CC2)C(F)C1 (centres unmarked) = < 20 nM
Cc1cnc(-c2cccc(N3CCCN(C4CCN(C(C)C)CC4)CC3)n2)[nH]1 = 20 to 100 nM

Lookup: # Ki lookup, item `CC(C)N1CCC(N2CCCN(c3cccc(-c4nc(C5CC5)no4)n3)CC2)CC1`
Found: 500 to 1000 nM
